- tested_target: Cbl-b (Homo sapiens (Human), UniProt Q13191)
- Sequence (Q13191 40-426): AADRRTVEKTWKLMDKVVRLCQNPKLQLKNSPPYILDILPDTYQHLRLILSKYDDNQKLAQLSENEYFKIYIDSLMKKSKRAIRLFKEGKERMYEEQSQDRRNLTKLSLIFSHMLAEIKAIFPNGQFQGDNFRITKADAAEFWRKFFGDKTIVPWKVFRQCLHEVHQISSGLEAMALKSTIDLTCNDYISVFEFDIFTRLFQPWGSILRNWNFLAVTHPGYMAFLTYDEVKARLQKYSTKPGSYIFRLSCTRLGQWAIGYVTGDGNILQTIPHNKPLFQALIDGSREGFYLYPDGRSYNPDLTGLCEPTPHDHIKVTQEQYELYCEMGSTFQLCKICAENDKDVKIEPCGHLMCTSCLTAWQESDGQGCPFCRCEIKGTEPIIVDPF
- test_details: Cbl-b LCK Ub TR-FRET assay (Cbl-b Lck HTRF)
- Assay type: biochemical
pIC50: −log10 of the molar value. Structures can show the parent of a compound that is named as a salt.
quantity_kind: pIC50

Before answering, review these 5 worked examples.
# compound, val
data = [
    ("Cc1cnn(CC2(c3cccc(N4Cc5c(cc(CN6CCN(C)C[C@@H]6C(C)C)cc5C(F)(F)F)C4=O)c3)COC2)n1", 7.82),
    ("CC(C)N(C)Cc1cc2c(c(C(F)(F)F)c1)CN(c1cccc(C3(Cc4nncn4C)CC(F)(F)C3)c1)C2=O", 7.04),
    ("CC(C)[C@H]1CN(C)CCN1Cc1cc2c(c(C(F)(F)F)c1)CN(c1cc(C3(Cc4nncn4C)COC3)cc(NC3CCCC3)n1)C2=O [Compound 297, formate]", 8.04),
    ("Cn1cnnc1CC1(c2cccc(N3Cc4c(cc(CNC(C)(C)CF)cc4C(F)(F)F)C3=O)c2)CC(F)(F)C1", 7.55),
    ("CC(=O)NCCCCNc1cc(C2(Cc3nncn3C)CCC2)cc(N2Cc3c(cc(CNC4(C)CCC4)cc3C(F)(F)F)C2=O)n1 [Compound 314, formate]", 7.57),
]

[A] CC[C@H]1CN(C)CCN1Cc1cc2c(c(C(F)(F)F)c1)CN(c1cccc(C3(Cc4nncn4C)CC(F)(F)C3)c1)C2=O [Compound 434]
[B] Cn1cnnc1[C@H](F)C1(c2cccc(N3Cc4c(cc(CN5CC(C)(CO)C5)cc4C(F)(F)F)C3=O)c2)CC1
Incoming: Form: Entry with minimum pIC50 (choose one): A / B Returns: label corresponding to the selected item.
Outgoing: B

[a] Cn1cnnc1[C@H](F)C1(c2cccc(N3Cc4c(cc(CN5CC(O)(C6CC6)C5)cc4C(F)(F)F)C3=O)c2)COC1
[b] Cn1cnnc1CC1(c2cccc(N3Cc4c(cc(CN5CCC[C@](C)(O)C5)cc4C(F)(F)F)C3=O)c2)CC(F)(F)C1
[c] CCN1CCN(Cc2cc3c(c(C(F)(F)F)c2)CN(c2cccc(C4([C@@H](F)c5nncn5C)CC(F)(F)C4)c2)C3=O)[C@@H](C(C)C)C1
[d] CCOc1cc(C2(Cc3nncn3C)CCC2)cc(N2Cc3c(cc(CNC4(C)CCC4)cc3C(F)(F)F)C2=O)n1 [Compound 285]
Incoming: Please order the records by their reported pIC50, lowest number first. Output the labels ranked as instructed.
Outgoing: b, a, c, d

[a] CCc1cc(C2(Cc3nncn3C)CCC2)cc(N2Cc3c(cc(CNC4(C)CCC4)cc3C(F)(F)F)C2=O)n1
[b] Cn1cnnc1[C@@H](F)C1(c2cccc(N3Cc4c(cc(CN5CC(C)(O)C5)cc4C(F)(F)F)C3=O)c2)COC1
Incoming: Field: entry with larger pIC50 (options a / b ). Answer format: the label of the selected item.
Outgoing: a
